measurement protocol: Trypanosoma cruzi growth suppression in host cells – NIH3T3 host cells, beta-gal luminescence, confirmation (AID 2044);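 note: intracellular parasites grown in NIH/3T3 mouse fibroblasts as host cells; luminescent beta-galactosidase reporter signal from transgenic T. cruzi replicating inside host cells; inhibitors lower the luminescence signal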
Type: functional, cell-based
Active and inactive are the calls of the source.
readout kind: EC50

Reference set (4 entries):
compound	EC50
N=c1c(S(=O)(=O)c2ccc(Cl)cc2)cc2c(=O)n3ccccc3nc2n1C1CCCC1	870 nM (active)
Cc1ccc(C(=O)NC(=S)Nc2ccc(CN3CCCCC3)cc2)c(C)c1	980 nM (active)
CCCNC(=O)c1ccc(N2CCC3(CC2)CC(c2cccc(Br)c2)=NO3)c(NC(=O)c2ccccc2)c1	2500 nM (active)
O=C(C1=C[C@H](C2CCCCC2)C[C@H](OCCCCO)O1)N1CCN(Cc2ccc3c(c2)OCO3)CC1	< 100 nM (active)

Request: Can you look up the measured EC50 of O=C(N/N=C/c1ccc([N+](=O)[O-])o1)c1ccccc1-n1cccc1 for me?
Response: 137 nM (active)

Request: // returns reported EC50 for input c1ccc(Nc2nc(-c3ccncc3)cs2)cc1
Response: 544 nM (active)

Request: Could you tell me which EC50 is on file for CCC(C)(C)c1ccc(OCCCC[n+]2cccc(C)c2)c(C(C)(C)CC)c1 ?
Response: < 100 nM (active)

Request: Sample Fc1ccccc1COc1ccccc1CNCc1ccncc1 — what was its EC50?
Response: 1450 nM (active)

Request: Please look up its EC50: COc1cccc(C(=O)Oc2c(Br)cc(Br)cc2/C=N/NC(=O)c2cc(C)[nH]n2)c1
Response: 942 nM (active)

Request: Please look up its EC50: CCCCCn1c2c(c(=N)c3ccccc31)CCC2
Response: < 100 nM (active)

Request: Data request, read-out EC50, for COc1ccccc1C1NC=C([N+](=O)[O-])C=C1[N+](=O)[O-] (stereo unspecified)
Response: 1730 nM (active)

###

measurement protocol: NIH3T3 cell viability loss – ATP luminescence, mouse fibroblasts, counter-screen, dose response (AID 2010);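 note: cells exposed to compound for about 90 hours before reading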
Format: functional, cell-based
Activity calls are given as the source filed them.
readout kind: EC50

Solved cases (2 shown):
molecule	EC50
O=C(N/N=C/c1ccc([N+](=O)[O-])o1)c1ccccc1-n1cccc1	> 60 µM (not active)
CCC(=O)NC(c1cccs1)c1ccc2cccnc2c1O (stereo not drawn)	1.48 µM (active)

Request: Which EC50 is reported for this molecule? CCOC(=O)C1=C(N)Oc2ccc3ccccc3c2C1c1cccnc1 (stereo not drawn)
Response: > 60 µM (not active)

###

Here, each record is paired with measured AC50 data.
study target: UniProt:P9WQ81
Sequence (P9WQ81 whole entry): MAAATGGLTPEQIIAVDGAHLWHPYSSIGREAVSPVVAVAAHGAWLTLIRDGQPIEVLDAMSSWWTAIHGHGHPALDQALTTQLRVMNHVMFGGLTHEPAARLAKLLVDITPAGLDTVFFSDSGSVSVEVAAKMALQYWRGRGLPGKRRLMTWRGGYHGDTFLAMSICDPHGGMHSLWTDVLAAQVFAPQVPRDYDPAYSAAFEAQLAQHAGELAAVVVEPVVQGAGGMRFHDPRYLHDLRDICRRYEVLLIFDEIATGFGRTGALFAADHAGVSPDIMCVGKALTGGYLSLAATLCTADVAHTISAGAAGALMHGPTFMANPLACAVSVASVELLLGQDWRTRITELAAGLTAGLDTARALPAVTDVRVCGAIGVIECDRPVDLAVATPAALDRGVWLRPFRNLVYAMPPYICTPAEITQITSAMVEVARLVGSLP
measurement protocol: Mycobacterium tuberculosis BioA enzyme inhibitor Measured in Biochemical System Using Plate Reader - 2163-02_Inhibitor_Dose_CherryPick_Activity.
Type: functional, Mycobacterium tuberculosis UT205
Calls of active or inactive are those of the source.

Here are 3 molecules together with their reported answers.
molecule	readout kind	endpoint value
COc1cc(-c2nc3ccccc3nc2-c2ccc(O)c(OC)c2)ccc1O	AC50	3.99 µM (active)
COC(=O)c1c(C(=O)OC)c(-c2cccc(F)c2)n2c1C[S+]([O-])C2 (centres undefined)	AC50	0.659 µM (active)
COc1ccc(-c2nc3ccc(Cl)cn3c2Cc2ccccc2)cc1OC	AC50	10.6 µM (active)

Let's switch to this molecule now.
Request: What does the record list as AC50 for COc1ccc(CCNC(=O)c2cnc3n(c2=O)CCS3)cc1OC ?
Response: 13.7 µM (active)

The values you see were collected from ChEMBL document CHEMBL1201862.
